Entries annotated with measured pIC50
Biological target: plasmin (Homo sapiens)
Sequence (P00747 581-810 limits assumed, species assumed): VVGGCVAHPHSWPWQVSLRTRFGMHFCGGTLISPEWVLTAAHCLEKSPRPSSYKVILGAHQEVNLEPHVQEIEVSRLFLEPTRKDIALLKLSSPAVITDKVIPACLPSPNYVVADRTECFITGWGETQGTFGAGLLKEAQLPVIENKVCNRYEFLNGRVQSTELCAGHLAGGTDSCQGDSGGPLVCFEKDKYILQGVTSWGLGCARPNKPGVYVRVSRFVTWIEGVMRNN
Sequence (P00747 97-580 partner limits assumed, species assumed): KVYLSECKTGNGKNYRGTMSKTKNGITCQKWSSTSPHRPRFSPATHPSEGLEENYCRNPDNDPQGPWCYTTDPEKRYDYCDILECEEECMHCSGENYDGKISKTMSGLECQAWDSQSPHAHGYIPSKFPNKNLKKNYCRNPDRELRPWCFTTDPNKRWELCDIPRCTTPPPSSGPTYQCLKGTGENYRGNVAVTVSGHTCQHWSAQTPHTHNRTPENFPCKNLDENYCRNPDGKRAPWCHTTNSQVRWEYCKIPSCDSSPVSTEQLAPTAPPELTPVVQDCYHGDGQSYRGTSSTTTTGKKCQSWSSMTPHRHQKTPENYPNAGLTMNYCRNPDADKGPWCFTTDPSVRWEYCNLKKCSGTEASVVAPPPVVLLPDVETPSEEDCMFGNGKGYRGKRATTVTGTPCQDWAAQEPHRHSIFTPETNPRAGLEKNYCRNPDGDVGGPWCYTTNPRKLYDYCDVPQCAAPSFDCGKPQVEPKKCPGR
Assay: Plasmin enzymatic inhibition assay
Assay type: biochemical
Conditions: read-out: Plasmin IC50; 22°C, pH 7.4, substrate tosyl-Gly-Pro-Lys-pNA
pIC50: −log10 of the molar value.

compound_string: NC(=O)c1nc(Cl)c(NCC(=O)OCc2ccccc2)nc1N
target_desc: plasmin (Homo sapiens)
pIC50: < 3.82

compound_string: N=C(N)c1nc(Cl)c(NCC(=O)O)nc1N
target_desc: plasmin (Homo sapiens)
pIC50: < 3.60
